All values here come from patent US8053581B2.

- target_of_assay: PLTP (Homo sapiens)
- Construct: from tissue
- Sequence (P55058 18-493, species assumed): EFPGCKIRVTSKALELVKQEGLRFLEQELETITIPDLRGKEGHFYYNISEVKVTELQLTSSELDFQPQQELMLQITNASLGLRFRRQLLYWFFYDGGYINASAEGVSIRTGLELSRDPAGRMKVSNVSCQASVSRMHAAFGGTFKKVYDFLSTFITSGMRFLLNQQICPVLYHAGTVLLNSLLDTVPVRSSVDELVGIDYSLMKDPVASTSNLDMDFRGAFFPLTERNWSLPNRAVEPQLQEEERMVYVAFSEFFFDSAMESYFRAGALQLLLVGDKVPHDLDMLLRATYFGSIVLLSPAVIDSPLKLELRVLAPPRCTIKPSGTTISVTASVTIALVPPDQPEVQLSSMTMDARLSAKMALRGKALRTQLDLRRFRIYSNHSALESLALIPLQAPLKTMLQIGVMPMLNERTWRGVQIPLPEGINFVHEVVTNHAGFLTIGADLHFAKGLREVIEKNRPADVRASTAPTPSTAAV
- experiment: Determination of PLTP inhibition activity (radiolabelled phospholipid liposome to HDL transfer with plasma)
- Assay type: biochemical
- settings: Concentration of compounds 250 μM; read-out: PLTP inhibition activity Inhibition rate(%)
Task for the reader: assign each of the following compounds its reported inhibition at 250 µM.
Answers are plain numbers, in %.

>>> recorded_value("Cc1sc(NC(=O)c2ccc(O)c(O)c2)nc1-c1ccc(O)cc1")
71.9
>>> recorded_value("Cc1sc(NC(=O)c2cc(O)c(O)c(O)c2)nc1-c1ccc(O)cc1")
10.7
>>> recorded_value("CCCCc1sc(NC(=O)c2ccc(O)c(O)c2)nc1-c1ccc(O)cc1")
93.4
>>> recorded_value("O=C(Nc1nc(-c2ccccc2)c(Cc2ccc([N+](=O)[O-])cc2)s1)c1ccc(O)c(O)c1")
100

State recorded inhibition at 250 µM for all listed compounds.
1. O=C(Nc1nc(-c2ccc(F)cc2)c(Cc2ccc([N+](=O)[O-])cc2)s1)c1ccc(O)c(O)c1
2. COc1ccc(-c2nc(N)sc2CCc2ccccc2)cc1
3. CCCCc1sc(NC(=O)c2cc(O)c(O)c(O)c2)nc1-c1ccc(O)cc1
4. COc1ccc(-c2nc(N)sc2Cc2ccc(F)cc2)cc1
5. O=C(Nc1nc(-c2ccc(O)cc2)c(Cc2ccccc2)s1)c1ccc(O)c(O)c1
6. O=C(Nc1nc(-c2ccc(O)cc2)c(CCc2ccccc2)s1)c1ccc(O)c(O)c1

[100, 24, 100, 11.5, 79.8, 97]

State recorded inhibition at 250 µM for all listed compounds.
1. O=C(Nc1nc(-c2ccc(O)cc2)c(CC2CCCCC2)s1)c1cc(O)c(O)c(O)c1
2. CCCCc1sc(N)nc1-c1ccc(OC)cc1
3. O=C(Nc1nc(-c2ccc(O)cc2)c(Cc2ccc(F)cc2)s1)c1ccc(O)c(O)c1

[100, 15.3, 73.2]

The measured inhibition at 250 µM associated with O=C(Nc1nc(-c2ccc(O)cc2)c(Cc2ccc([N+](=O)[O-])cc2)s1)c1ccc(O)c(O)c1 reads 67.6

----------
measured_metric: melting point

Check out these entries, answers already filled in.
>>> recorded_value("Nc1nc(-c2ccc(O)cc2)c(Cc2ccccc2)s1")
"170 to 172 °C"
>>> recorded_value("COc1ccc(-c2nc(NC(=O)c3ccc(OC)c(OC)c3)sc2CCc2ccccc2)cc1")
"74 to 75 °C"
>>> recorded_value("COc1ccc(-c2nc(N(C(=O)c3ccc(OC)c(OC)c3)C(=O)c3ccc(OC)c(OC)c3)sc2Cc2ccc(F)cc2)cc1")
"136 to 137 °C"
>>> recorded_value("CCCCc1sc(NC(=O)c2cc(O)c(O)c(O)c2)nc1-c1ccc(O)cc1")
"119 to 120 °C"
>>> recorded_value("COc1ccc(-c2nc(N)sc2C)cc1")
"139 to 140 °C"
>>> recorded_value("O=C(Nc1nc(-c2ccc(O)cc2)c(Cc2ccccc2)s1)c1ccc(O)cc1O")
"217 to 219 °C"
>>> recorded_value("COc1ccc(-c2nc(NC(=O)c3ccc(F)cc3)sc2Cc2ccc(F)cc2)cc1")
"184 to 185 °C"
>>> recorded_value("COc1ccc(-c2nc(N3CCOCC3)sc2Cc2ccccc2)cc1")
"88 to 89 °C"
>>> recorded_value("COc1ccc(-c2nc(N(CCO)CCO)sc2Cc2ccccc2)cc1")
"119 to 120 °C"
>>> recorded_value("CCCCc1sc(NC(=O)c2ccc(O)c(O)c2)nc1-c1ccc(O)cc1")
"189 to 190 °C"

State recorded melting point for all listed compounds.
1. Nc1nc(-c2ccccc2)c(Cc2ccc([N+](=O)[O-])cc2)s1
2. COc1ccc(-c2nc(NC(=O)c3ccc(Cl)cc3)sc2Cc2ccccc2)cc1

1: 215 to 216 °C; 2: 182 to 183 °C
